test system: P. falciparum 3D7 growth, pLDH absorbance; assay: blood-stage malaria parasite growth potency – strain 3D7, dose response (AID 2305)
pIC50: −log10 of the molar value.
The compounds listed here are annotated with their pIC50.

{"compound": "Cc1cccc(Nc2nc(N[C@@H]3CCCNC3)nc3cc[nH]c(=O)c23)c1", "system.tested": "P. falciparum 3D7 growth, pLDH absorbance", "pIC50": 6.17}
{"compound": "CC(C)COc1ccc(Cl)cc1Nc1nc(-c2nc3ccccc3[nH]2)cs1", "system.tested": "P. falciparum 3D7 growth, pLDH absorbance", "pIC50": 6.06}
{"compound": "CN1CCC(NCc2cccc(-c3cccc(S(=O)(=O)NCc4ccccc4)c3)c2)CC1", "system.tested": "P. falciparum 3D7 growth, pLDH absorbance", "pIC50": 6.12}
{"compound": "Cc1cc(=O)c(-c2cccc(Oc3ccc(Cl)cc3)c2)c(C)[nH]1", "system.tested": "P. falciparum 3D7 growth, pLDH absorbance", "pIC50": 6.13}
{"compound": "CCC[C@@H]([C@@H](CC(C)C)C(=O)N[C@H](C(=O)Nc1nccs1)C(C)(C)SCCNC(=O)OCC)N(O)C=O", "system.tested": "P. falciparum 3D7 growth, pLDH absorbance", "pIC50": 6.77}
{"compound": "O=C(NCCCc1ccccc1)c1ccc(O)c(-c2cc(Cl)cc(Cl)c2)c1", "system.tested": "P. falciparum 3D7 growth, pLDH absorbance", "pIC50": 6.24}
{"compound": "COc1cc(C)nc2ccc(NC(=O)Nc3ccc4nc(C)cc(OC)c4c3)cc12", "system.tested": "P. falciparum 3D7 growth, pLDH absorbance", "pIC50": 6.26}
{"compound": "Cc1ccc(Nc2nccc(NCC(O)c3ccc(C(F)(F)F)cc3)n2)cc1 (stereo not given)", "system.tested": "P. falciparum 3D7 growth, pLDH absorbance", "pIC50": 6.31}
{"compound": "CN(c1ccccc1C(=O)Nc1cc(Cl)ccc1Oc1ccccc1)S(=O)(=O)c1ccccc1", "system.tested": "P. falciparum 3D7 growth, pLDH absorbance", "pIC50": 6.13}
{"compound": "COc1ccc2nccc([C@@H](O)CN3CCC(NCCOc4c(C)cccc4F)CC3)c2c1", "system.tested": "P. falciparum 3D7 growth, pLDH absorbance", "pIC50": 6.46}
